EXPERIMENTAL SYSTEM: HaloTag-ING2 PHD (mouse Ing2 200-280)
PROCEDURE SUMMARY: peptide microarray binding signal (635 nm), min-max normalized on array (fraction of array maximum); higher = stronger binding
MEASUREMENT SETUP: peptide region: Unmod H1 variant; binder concentration: 10 nM
EXPERIMENTAL READOUT: peptide microarray binding signal
Give the figure only, with no unit attached.

BINDER	peptide microarray binding signal
SHYKVGENADSQI [Unmod H1 variant S H Y K V G E N A D S Q I]	0.00197

State the recorded peptide microarray binding signal for this entry: SKKSVKTPKKAKK [Unmod H1 variant S K K S V K T P K K A K K]
0.00113

State the recorded peptide microarray binding signal for this entry: DSQIKLSIKRLVT [Unmod H1 variant D S Q I K L S I K R L V T]
0.00382

State the recorded peptide microarray binding signal for this entry: IKLGIKSLVSKGT [Unmod H1 variant I K L G I K S L V S K G T]
0.00656

State the recorded peptide microarray binding signal for this entry: TPKKSAKKTPKKA [Unmod H1 variant T P K K S A K K T P K K A]
0.00322
